Cited source: patent US9096624B2

- Measurement target: FAK (Homo sapiens, UniProt Q05397)
- Sequence (Q05397 whole entry): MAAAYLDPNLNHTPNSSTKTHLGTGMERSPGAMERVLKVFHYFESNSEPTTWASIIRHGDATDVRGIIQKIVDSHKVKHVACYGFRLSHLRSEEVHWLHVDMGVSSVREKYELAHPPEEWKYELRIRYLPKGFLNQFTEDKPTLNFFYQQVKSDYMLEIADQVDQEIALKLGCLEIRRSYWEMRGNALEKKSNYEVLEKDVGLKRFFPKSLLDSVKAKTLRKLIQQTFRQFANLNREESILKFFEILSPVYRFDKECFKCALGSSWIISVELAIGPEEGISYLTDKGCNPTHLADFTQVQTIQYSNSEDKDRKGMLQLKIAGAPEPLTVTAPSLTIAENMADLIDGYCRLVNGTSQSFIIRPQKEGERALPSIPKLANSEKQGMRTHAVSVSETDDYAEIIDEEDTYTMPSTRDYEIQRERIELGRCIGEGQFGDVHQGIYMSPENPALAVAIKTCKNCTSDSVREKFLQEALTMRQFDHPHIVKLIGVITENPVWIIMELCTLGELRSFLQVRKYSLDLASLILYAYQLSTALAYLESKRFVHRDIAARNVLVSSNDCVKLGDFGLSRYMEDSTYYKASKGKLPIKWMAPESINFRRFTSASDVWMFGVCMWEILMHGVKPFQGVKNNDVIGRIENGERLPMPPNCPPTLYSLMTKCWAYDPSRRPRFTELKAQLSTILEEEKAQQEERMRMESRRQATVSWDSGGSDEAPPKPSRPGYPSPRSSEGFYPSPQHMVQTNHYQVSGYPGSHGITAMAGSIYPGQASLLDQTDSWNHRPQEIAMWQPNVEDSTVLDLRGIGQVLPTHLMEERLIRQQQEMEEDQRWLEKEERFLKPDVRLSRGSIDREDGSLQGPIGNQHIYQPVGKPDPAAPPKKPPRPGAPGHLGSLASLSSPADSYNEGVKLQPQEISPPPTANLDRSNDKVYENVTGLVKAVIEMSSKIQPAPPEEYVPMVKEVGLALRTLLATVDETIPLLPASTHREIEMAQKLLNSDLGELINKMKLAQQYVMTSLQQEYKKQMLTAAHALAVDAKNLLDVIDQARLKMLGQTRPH
- Test description: Cell-based capture ELISA for inhibition of FAK autophosphorylation [pY397] in MiaPaCa2 cells
- Stated conditions: MIA-PaCa2 cells, + 50% mouse plasma (Table 3); read-out: Mean FAK Cell Mechanistic IC50 + 50% mP MIA-PaCa2
Provide the recorded IC50 for the entries that follow.

[ask] Provide one value: measured IC50 of CCOP(=O)(Cc1ccc(Nc2ncc(C(F)(F)F)c(Nc3ccc(OC)c4c3C(=O)N(C)C4)n2)c(OC)c1)OCC [Example 209]
[reply] < 1 µM

[ask] Specify reported IC50 for the molecule shown: CCOP(=O)(Cc1ccc(Nc2ncc(C(F)(F)F)c(Nc3ccc(N4CC(O)C4)c4c3C(=O)N(C)C4)n2)c(OC)c1)OCC [Example 229]
[reply] < 1 µM

[ask] For the molecule CCOP(=O)(Cc1ccc(Nc2ncc(C(F)(F)F)c(Nc3ccc(-c4ccn(CCO)n4)c4c3C(=O)N(C)C4)n2)cc1)OCC [Example 142] , give its reported IC50.
[reply] < 1 µM
